- Tested on: Saccharomyces cerevisiae
- assayProcedure: protein stability index of tFT-peptide fusion (C-terminal peptide) (PSI (0-1 scale)); higher = more stable (slower turnover)
- conditionLabel: genetic background: das1 deletion; temperature: 30 C
Recorded protein stability index by entry
Please respond with just the number, no unit label.

// known answers, use as guide
{"constructSequence": "DLLNKESEYLNI [FAR11 C-terminal 12 aa]", "protein stability index": 0.705}
{"constructSequence": "VVKRKKVKTKRI [JJJ1 C-terminal 12 aa]", "protein stability index": 0.689}
{"constructSequence": "ETNFWTAAMEYE [THI22 C-terminal 12 aa]", "protein stability index": 0.717}
{"constructSequence": "LQKFYLQVSTIS [YFR054C C-terminal 12 aa]", "protein stability index": 0.456}
{"constructSequence": "EDVEVPFITIHL [UBA1 C-terminal 12 aa]", "protein stability index": 0.688}

Next, consider the following sequence.
Reported protein stability index, sequence NDAQKRAIDENF [SIS1 C-terminal 12 aa] : ____
0.687
